Target: T1, IL-2Rβ/γ on M07e cells (human, UniProt P14784 27-551; P31785 23-369)
T1 sequence (looked up) 1: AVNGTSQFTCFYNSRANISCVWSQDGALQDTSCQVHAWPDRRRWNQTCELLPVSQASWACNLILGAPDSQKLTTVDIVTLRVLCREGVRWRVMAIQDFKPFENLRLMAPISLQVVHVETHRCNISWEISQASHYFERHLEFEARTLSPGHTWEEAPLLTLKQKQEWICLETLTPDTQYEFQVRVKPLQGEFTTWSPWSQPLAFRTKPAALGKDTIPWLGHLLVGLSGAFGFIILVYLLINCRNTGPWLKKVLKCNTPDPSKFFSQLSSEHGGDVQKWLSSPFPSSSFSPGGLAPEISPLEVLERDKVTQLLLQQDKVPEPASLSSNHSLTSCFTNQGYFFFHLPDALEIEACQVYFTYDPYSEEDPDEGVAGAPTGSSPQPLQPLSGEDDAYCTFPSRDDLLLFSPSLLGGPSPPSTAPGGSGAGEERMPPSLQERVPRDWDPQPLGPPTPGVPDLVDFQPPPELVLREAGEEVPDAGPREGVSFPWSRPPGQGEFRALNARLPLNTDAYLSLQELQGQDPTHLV
T1 sequence (looked up) 2: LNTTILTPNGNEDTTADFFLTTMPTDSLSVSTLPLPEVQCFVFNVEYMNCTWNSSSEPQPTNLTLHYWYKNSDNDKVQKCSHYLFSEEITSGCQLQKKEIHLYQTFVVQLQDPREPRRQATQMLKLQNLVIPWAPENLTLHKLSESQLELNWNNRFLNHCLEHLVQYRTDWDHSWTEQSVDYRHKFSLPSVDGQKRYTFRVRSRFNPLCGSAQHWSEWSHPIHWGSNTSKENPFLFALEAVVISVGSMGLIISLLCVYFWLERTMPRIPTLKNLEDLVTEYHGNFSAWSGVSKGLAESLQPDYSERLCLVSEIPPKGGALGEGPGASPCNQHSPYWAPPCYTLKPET
Experiment: cell-based or functional assay
REPORTED ENDPOINT: M07e cell proliferation activity (%) at 12 nM

>  <BINDER>
A-D20A (Fc fusion, also called PD-1-IL-2v (D20A); not shown: IgG1 hinge (C220S) + Fc Knob chain (L234A, L235A, S354C, T366W, EU); D356/L358 or E356/M358 ver; IgG1 hinge (C220S) + Fc Hole chain (L234A, L235A, Y349C, T366S, L368A, Y407V; may have H435R, Y436F; EU)) chain (part 1 of 2): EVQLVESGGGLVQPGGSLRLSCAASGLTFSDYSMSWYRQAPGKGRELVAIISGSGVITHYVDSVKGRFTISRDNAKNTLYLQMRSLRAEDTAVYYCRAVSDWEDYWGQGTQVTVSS chain (part 2 of 2): GGGGSGGGGSGGGGSAPASSSTKKTQLQLEHLLLALQMILQGISNYKNPKLTRMLTAKFYMPKKATELKHLQCLEEELKPLEEVLQGAQSKNFHLRPRDLISNINVIVLELKGSETTFMCEYADETATIVEFLNRWITFAQSIISTLT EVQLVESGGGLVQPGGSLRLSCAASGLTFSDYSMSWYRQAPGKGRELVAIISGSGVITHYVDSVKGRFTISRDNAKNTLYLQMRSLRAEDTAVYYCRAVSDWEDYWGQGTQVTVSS

>  <MEASURED>
-3%

$$$$
